The values you see were collected from ChEMBL document CHEMBL3433997.

assayed.system: Hexose transporter 1 (Plasmodium falciparum) (UniProt O97467)
experimental.protocol: ST_JUDE_LEISH: Cytotoxicity at 2uM final concentration against transgenic Leishmania Mexicana promastigotes LmPfHT that are glucose transport deficient and complemented with the Plasmodium falciparum hexose transporter. Activity is measured by DNA content using SYBR green in vitro
Assay type: functional
Hi there, I'd appreciate the recorded inhibition for every entry that follows.
Please give a number only; it is taken to be in %.

# inhibition (molecule: COc1cc(SC)ccc1C(=O)N1CC(C)CC(C)C1 (stereo unspecified) ) is 11.1

# inhibition of Cc1cccc2nc(-c3ccc(-c4ccc(CN5CCN(CCO)CC5)cc4)s3)[nH]c12 = 8.8

// inhibition value for O=C(/C=C/c1ccc(Cl)c(Cl)c1)NCCC(CN1CCC(c2c[nH]c3ccccc23)CC1)c1ccccc1 (stereo unspecified) : 2.22

Short answer for Cc1ccc(S(=O)(=O)N(CCCN2CCN(C)CC2)Cc2csc(-c3ccc(CNCc4ccccc4)cc3)n2)cc1 : inhibition was 7.67

For this molecule ( COc1cc(CNC[C@@H](O)[C@H](Cc2ccccc2)NC(=O)c2cc(OC(C)C)cc(N3CCCCS3(=O)=O)c2)cc(OC)c1 ), measured inhibition is 2.12

Note to self: inhibition recorded for CS(=O)(=O)CCNCc1nc(-c2ccc3c(=O)[nH]cnc3c2)cs1 was 48

Briefly, inhibition measured for CCCNC(=O)Nc1cc2cc(-c3ccc(CN4CCCC4)cc3)ccc2n2c(C)nnc12 : 3.01

molecule CCn1c(Cc2ccccc2)nnc1Sc1ccc([N+](=O)[O-])c(C#N)c1 , inhibition observed: 6.38

GET /value?item= COc1ccccc1COc1c(C)nc(N)nc1N &field=inhibition returns -0.61

Kindly note the recorded inhibition for CC(=O)Nc1ccc(S(=O)(=O)Nc2c(C)cc(Cc3cnc(N)nc3N)cc2C)cc1 , which is 0.02

// inhibition lookup, molecule = N#Cc1cccc(C(=O)Nc2cccc(-c3cccc(CN4CCNCC4)c3)c2)c1 , result: 6.34

The molecule listed as CC(C)Oc1ccc(CCCON2C(=N)N=C(N)NC2(C)C)cc1 shows inhibition equal to 28.2

Measured inhibition of COc1cc(CCON2C(N)=NC(N)=NC2(C)C)cc(OC)c1OC : 0.73

Record CCCN1CCN(c2ccc(NS(=O)(=O)c3ccc(C(=O)Nc4ccc(Cl)cc4)cc3)cc2)CC1 , field inhibition: 0.84

// inhibition value for COC(=O)c1cccc(C#CCCOCCCCCCNC[C@H](O)c2cc(Cl)c(N)c(Cl)c2)c1 : 0.28

Lab note: O=C(Nc1ccc(OC2CCN(Cc3ccsc3)CC2)c(Cl)c1)c1ccco1 gave inhibition of 5.95

Reported inhibition of O=S(=O)(NCCN1CCCC1)c1ccc(-c2cccc(CNCCc3cccs3)c2)s1 : 2.28

Cc1ccc(-c2ccc3c(c2)C=C(C(=O)NC2CCN(CCNC(=O)c4cccs4)CC2)CCC3)cc1 has a reported inhibition of 2.81

Looking up CCOc1ccc(C(Cc2ccccc2)NC(=O)c2cccnc2)cc1OCC (stereo unspecified) , I see its inhibition listed as -2.62

So for Cc1nc(SCC(=O)N2CCCC2=O)c2c(C)c(C)sc2n1 , the logged inhibition turned out to be 8.95

Entry under test: Cc1cc(Cl)c(S(=O)(=O)N(C)c2ccccc2)cc1OCC(=O)NC1CCCCC1 . Its inhibition was 1.38

Input Cc1cc(C2CCN(CCCCNC(=O)c3ccc(NC(=O)c4ccc(Cl)cc4)cc3)CC2)c(C)cc1OCc1ccccn1 . Output inhibition: 2.64

The molecule listed as Nc1nc(N)c2c(ccc3c2ccn3Cc2ccccn2)n1 shows inhibition equal to 92

COc1cc(O)c2c(=O)c(OC)c(-c3cccc(Cl)c3OC3O[C@H](CO)[C@@H](O)[C@H](O)[C@H]3O)oc2c1OC (stereo partly specified) has a reported inhibition of 4.48

Lab note: measured inhibition of N#Cc1ccc(-c2ccc(C(=O)NCCCCN3CCC(n4cnc5ccccc54)CC3)cc2)cc1 was 3.72

Measured inhibition of Cc1nc(C)c(-c2ccc(S(=O)(=O)c3ccc(Cl)cc3)cc2)c(O)c1Br : 4.53

---

assayed.system: Glucose transporter (Leishmania mexicana) (UniProt O61059)
experimental.protocol: ST_JUDE_LEISH: Cytotoxicity at 2uM final concentration against transgenic Leishmania Mexicana promastigotes LmGT2 that are glucose transport deficient and complemented with the L. Mexicana glucose transporter 2. Activity is measured by DNA content using SYBR green in vitro
Assay type: functional
readout.name: inhibition (%)
Reply numerically in %, unit not repeated.

The recorded inhibition for CN(C)CCCOc1ccc(CCNCc2cccc(Oc3ccc(Cl)cc3)c2)cc1 is 13.7

Sure, the documented inhibition for O=C(C=Cc1ccc(Cl)c(Cl)c1)NCCCCCN1CCC(CCNC(=O)c2ccc3c(c2)OCO3)CC1 is 5.57

Sure, the documented inhibition for COc1cc2ncnc(Nc3ccc(OC(F)(F)c4ccccc4)cc3)c2cc1OC is 7.93

Reported inhibition ( CCc1cc([C@H]2O[C@@H](n3cnc4c(NCC(c5ccccc5)c5ccccc5)nc(NCCNc5ccccn5)nc43)[C@H](O)[C@@H]2O)on1 ) = -2.53

Looking up CC(=O)Nc1nc(C(=O)Nc2cccc(-c3cccc(-c4nc5ccccc5[nH]4)c3)c2)cs1 , I found its inhibition recorded as 6.57

Measured inhibition, COc1ccc(-c2cccc(CNC3CCN(CC4Cn5c(=O)ccc6ccc(F)c4c65)CC3)c2)cc1 (configuration not stated) : 8.16

Entry under test: CCn1c(-c2nonc2N)nc2cnc(Oc3cccc(NC(=O)c4ccc(OCCN5CCCCC5)cc4)c3)cc21 . Its inhibition was 13.7

Reported inhibition of O=C(Nc1ccc(Br)cc1)Nc1ccc(Cn2ncc(N3CCCNCC3)c(Cl)c2=O)cc1 : 2.81

Form: molecule = COc1ccc(CNc2nc(NCc3ccc(C(F)(F)F)cc3)c3cc(OC)c(OC)cc3n2)cc1OC ; inhibition = 14.3

Recorded result, O=C(Nc1ccc(F)cc1)c1cnc(N2CCN(c3ccncc3)CC2)c(Cl)c1 , inhibition: 3.86

The measured inhibition associated with Nc1cccc(CNCc2ccc(-c3ccc(-c4nc5ccccc5[nH]4)s3)cc2)c1 reads 2.48

inhibition measured on FC(F)(F)c1ccc2[nH]c(-c3ccc(-c4cccc(CNCCN5CCNCC5)c4)cc3)nc2c1 = -1.87

Lookup result for CC1CN(c2ccc(NC(=O)c3ccc(F)cc3)cc2)CCN1Cc1cccc(F)c1 (configuration not stated) ; measured inhibition: 4.01

So, O=C(Nc1cccc(-c2ccc(-c3nc4ccccc4[nH]3)cc2)c1)c1csnn1 ? Its inhibition was 0.69

Lab note: measured inhibition of COc1ccc(S(=O)(=O)N2CCCc3ccc(Br)cc32)cc1N1CCN(C(=O)C(Cl)(Cl)Cl)CC1 was 1.28

The molecule Cc1ccc(-c2cc(C(=O)Nc3ccc(S(=O)(=O)N(C)Cc4ccccc4)cc3)[nH]n2)c(O)c1 showed inhibition equal to 1.49

GET /value?item= O=C(COc1ccc(Cl)c(Cl)c1)NCCCCCN1CCCN(C(=O)Nc2cc(Cl)cc(Cl)c2)CC1 &field=inhibition returns 6.4

---

assayed.system: Solute carrier family 2, facilitated glucose transporter member 1 (Homo sapiens)
experimental.protocol: ST_JUDE_LEISH: Cytotoxicity at 2uM final concentration against transgenic Leishmania Mexicana promastigotes LmGLUT1 that are glucose transport deficient and complemented with the human glucose transporter GLUT1. Activity is measured by DNA content using SYBR green in vitro
Format: functional
readout.name: inhibition (%)
Write it as a number; the unit % goes unstated.

// field: inhibition; key: CC(C)N(Cc1cnc(N)c(C#N)n1)c1ccc(Cl)c(Cl)c1 ; value = 3.62

Lookup result for COc1cc(NC(=O)c2sc(-c3ccc(Cl)cc3)cc2NC(=O)CN2CC[C@@H](O)C2)ccc1OCCN1CCCC1 ; measured inhibition: 23.1

Summary for this compound, O=c1cc(NCCCNCc2cc3ccc(Br)cc3s2)[nH]c2ccccc12 : inhibition is -0.97

Notebook: COc1ccc2ncc(F)c(CCN3CCC(NCc4cc(OC)c5c(c4)OCCO5)CC3)c2n1 , inhibition read as 7.06

Recorded inhibition (compound O=C(Nc1ccc(N2CCCCC2)c(Cl)c1)c1ccco1 ): 0.11

Form: compound = O=C(Nc1ccccc1)N(Cc1cccc(-c2ccc(CNCc3ccc4c(c3)OCO4)cc2)c1)C1CCN(Cc2ccccc2)CC1 ; inhibition = 2.89

GET /value?item= Cc1cc(N2CCCC2)nc(Nc2ccc(NC(=O)c3ccccc3C)cc2)n1 &field=inhibition returns -1.05

// inhibition lookup, compound = CCOc1ccc2c(=NN=Cc3ccccc3OC)cc(C)[nH]c2c1 , result: 7.35

Documented inhibition of CCCCc1ccc(Cc2cnc3nc(N)nc(N)c3c2C)cc1 : 11.6

The compound Cc1[nH]c(C)c(-c2ccc(-c3ccccc3F)nc2)c(=O)c1Cl showed inhibition equal to 1.2

// O=C(c1ccc(-c2ccc(-c3nc4cc(F)ccc4[nH]3)cc2)cc1)N1CCCCC1CN1CCC(O)C1 (stereo not drawn) : inhibition value = 4.53

Just so you know, measured inhibition for O=C(/C=C/c1ccc(Cl)c(Cl)c1)NCCCCCN1CCCN(C(=O)Nc2ccc(OC(F)F)cc2)CC1 came out at 3.05

Recorded result, C=CCn1c(Cc2ccccc2)nnc1Sc1ccc(C#N)c([N+](=O)[O-])c1 , inhibition: 3.36

For reference, reported inhibition for COc1ccc(-c2nc3ccc(C)nc3nc2-c2ccc(OC)cc2)cc1 stands at 5.17

inhibition reading for CC(C)CNCc1cccc(-c2ccc(CN(C(=O)NCCc3ccccc3)C3CCN(Cc4ccccc4)CC3)cc2)c1 : 75.8

The reported value for CCc1ccc(CN2CCC(C(=O)Nc3ccc(-c4nc5ccccc5[nH]4)cc3)CC2)o1 in terms of inhibition is 31.6

response.value for CNCCNCc1cccc(-c2ccc(-c3nc4ccccc4[nH]3)cc2)c1 (field: inhibition) = -1.56

Record Cn1nccc1C(=O)NCCNCc1ccc(-c2cccc(-c3nc4ccccc4[nH]3)c2)cc1 , field inhibition: -0.28

// field: inhibition; key: CN(C)C=Nc1ccc(OCCCCCCOc2ccc(N=CN(C)C)cc2)cc1 ; value = 3.14

Notebook: O=C(Nc1cccc(-c2cccc(-c3nc4cc(C(F)(F)F)ccc4[nH]3)c2)c1)c1ccncc1 , inhibition read as 5.04

inhibition measured on Cc1cc(C(=O)N(Cc2ccc(-c3ccc(CNCCc4ccc(S(C)(=O)=O)cc4)cn3)cc2)C(C)CN(C)C)ccc1[N+](=O)[O-] (stereo not drawn) = 7.26

Entry COc1ccc2nccc(N3CCC(CCNCc4ccc5c(n4)NC(=O)CS5)CC3)c2c1 ; inhibition = 6.54

Record N=C(N)Nc1ccc(OCCCCCOc2ccc(NC(=N)N)cc2)cc1 , field inhibition: 13.7

Noted for Nc1ccc2[nH]cc(C3CCN(CC4CCC(NC(=O)/C=C/c5ccc(Cl)c(Cl)c5)CC4)CC3)c2n1 (stereo not drawn) : its inhibition reads -2.2

The recorded inhibition for CCN1CCC(N(Cc2ccc(-c3ccc(C(F)(F)F)cc3)cc2)C(=O)Cn2c(CCc3cccc(F)c3F)cc(=O)c3c2CCCC3)CC1 is 0.35

Value of inhibition reported for the compound COc1cc(NCC(C)CNCc2cn(Cc3ccccc3)c3ccccc23)nc2ccccc12 (stereo not drawn) is 3.78

Just so you know, measured inhibition for CN(C)CCOc1ccc(-c2cc(-c3ccncc3)c(-c3ccc(Cl)c(O)c3)o2)cc1 came out at 1.31

So, COc1cc2nccc(Nc3cccc(Oc4ccccc4)c3)c2cc1OC ? Its inhibition was 12.8
